Target: HIV protease (Human immunodeficiency virus type 1 group M subtype B)
Construct: HIV protease was expressed in E. coli and partially purified from soluble extracts; made in house; host or cells: E. coli
Test: In vitro inhibition of HIV protease (spectrophotometric assay of N-terminal proline from cleavage of substrate S¹ or S²)
Format: biochemical
Settings: substrate S² (succinyl-Val-Ser-Gln-Asn-Phe-Pro-Ile isobutylamide), 0.68 mM, citrate buffer pH 5.5, 37°C; 1st run; read-out: IC₅₀ Inhibition of HIV protease S² 1st run
Text: HIV protease was expressed in E. coli and partially purified from soluble extracts of the bacterium by ammonium sulphate fractionation (0-30%). […] Cleavage of the substrate was quantified by measuring the production of H-Pro-Ile isobutylamide by the spectrophotometric assay of N-terminal proline. […]
Field 'label' (enum: MET / NOT MET). Set to MET when IC50 is strictly under 3 nM; else NOT MET.

Below, 4 molecules whose answers are already recorded.
# Mol Smiles, Group Label
measured = [
    ("CC[C@H](C)[C@H](NC(=O)[C@@H](C[C@H](O)[C@H](CC1CCCCC1)NC(=O)OC(C)(C)C)C(C)C)C(=O)NCc1ccccc1", "NOT MET"),
    ("CC[C@H](C)[C@H](NC(=O)[C@@H](C[C@H](O)[C@H](CC1CCCCC1)NC(=O)OC(C)(C)C)C(C)C)C(=O)NC1Cc2ccccc2C1", "NOT MET"),
    ("CC[C@H](C)[C@H](NC(=O)[C@@H](C[C@H](O)[C@H](CC1CCCCC1)NC(=O)OC(C)(C)C)C(C)C)C(=O)NCCc1ccccn1", "MET"),
    ("CC[C@H](C)[C@H](NC(=O)[C@@H](C[C@H](O)[C@H](CC1CCCCC1)NC(=O)OC(C)(C)C)C(C)C)C(=O)N[C@@H](Cc1ccccc1)C(=O)OC", "NOT MET"),
]

Q. State whether 3 nM exceeds IC50 recorded for CC[C@H](C)[C@H](NC(=O)[C@@H](C[C@H](O)[C@H](CC1CCCCC1)NC(=O)[C@H](CC(N)=O)NC(=O)OCc1ccccc1)C(C)C)C(=O)NCCc1ccccc1 .
A. MET

====

This listing pairs molecules with measured IC50.
tested on: HTLV-III (strain RF); test: In vitro antiviral activity: HTLV-III (strain RF) in C8166 cells, p24 antigen capture assay; assay type: cell-based; conditions: Human immunodeficiency virus 1; concentration that produces 50% protection; C8166 cells infected with ten times the TCD₅₀, 72 hours at 37°C, viral protein 24 antigen capture; read-out: IC₅₀ Activity against HIV
// return numeric value only (unit: µM, not printed)

# Molecule, Obs Value
data = [
    ("CC[C@H](C)[C@H](NC(=O)[C@@H](C[C@H](O)[C@H](CC1CCCCC1)NC(=O)OC(C)(C)C)C(C)C)C(=O)NC1Cc2ccccc2C1 [Compound E]", 0.07),
    ("CC[C@H](C)[C@H](NC(=O)[C@@H](C[C@H](O)[C@H](CC1CCCCC1)NC(=O)OC(C)(C)C)C(C)C)C(=O)NCCN1CCN(C(=O)OCc2ccccc2)CC1 [Compound L]", 0.005),
    ("CC[C@H](C)[C@H](NC(=O)[C@@H](C[C@H](O)[C@H](CC1CCCCC1)NC(=O)[C@H](CC#N)NC(=O)OCc1ccccc1)C(C)C)C(=O)NCCc1ccccc1 [Compound K]", 0.004),
    ("CC[C@H](C)[C@H](NC(=O)[C@@H](C[C@H](O)[C@H](CC1CCCCC1)NC(=O)OC(C)(C)C)C(C)C)C(=O)NCCc1ccccn1 [Compound D]", 0.02),
]

Shift focus to the following entry.
Q. Param readout = IC50; param system = HTLV-III (strain RF); param query = CC[C@H](C)[C@H](NC(=O)[C@@H](C[C@H](O)[C@H](CC1CCCCC1)NC(=O)CC(C)(C)C)C(C)C)C(=O)NCCc1ccccc1 [Compound J] ; response: value
A. 0.1

====

molecular target: HIV protease (Human immunodeficiency virus type 1 group M subtype B, UniProt P04585); construct: HIV protease was expressed in E. coli and partially purified from soluble extracts; made in house; host or cells: E. coli; assay: In vitro inhibition of HIV protease (spectrophotometric assay of N-terminal proline from cleavage of substrate S¹ or S²); type: biochemical; details: substrate S², 0.68 mM, citrate buffer pH 5.5, 37°C; 2nd run, lower protease concentration than in the 1st run; read-out: IC₅₀ Inhibition of HIV protease S² 2nd run
Assay Readout: IC50 (nM)
Your answer is read as nM, so omit the unit and give the number.

Would you please look over these solved cases?
# Mol Smiles, IC50 (nM)
data = [
    ("CC[C@H](C)[C@H](NC(=O)[C@@H](C[C@H](O)[C@H](CC1CCCCC1)NC(=O)OC(C)(C)C)C(C)C)C(=O)NCCN1CCN(C(=O)OCc2ccccc2)CC1", 2.7),
    ("CC[C@H](C)[C@H](NC(=O)[C@@H](C[C@H](O)[C@H](CC1CCCCC1)NC(=O)OC(C)(C)C)C(C)C)C(=O)NCCc1ccccc1", 0.62),
]

Q. Name the recorded IC50 for CC[C@H](C)[C@H](NC(=O)[C@@H](C[C@H](O)[C@H](CC1CCCCC1)NC(=O)OC(C)(C)C)C(C)C)C(=O)NCCc1ccc(O)cc1 .
A. 3.7

====

The entries below come with measured pIC50 values attached.
Molecular target: HIV protease (Human immunodeficiency virus type 1 group M subtype B, UniProt P04585)
Construct: HIV protease was expressed in E. coli and partially purified from soluble extracts; made in house; host or cells: E. coli
Assay: In vitro inhibition of HIV protease (spectrophotometric assay of N-terminal proline from cleavage of substrate S¹ or S²)
Assay type: biochemical
Settings: substrate S² (succinyl-Val-Ser-Gln-Asn-Phe-Pro-Ile isobutylamide), 0.68 mM, citrate buffer pH 5.5, 37°C; 1st run; read-out: IC₅₀ Inhibition of HIV protease S² 1st run
From the text: HIV protease was expressed in E. coli and partially purified from soluble extracts of the bacterium by ammonium sulphate fractionation (0-30%). […] Cleavage of the substrate was quantified by measuring the production of H-Pro-Ile isobutylamide by the spectrophotometric assay of N-terminal proline. […]
Scale note: pIC50 = -log10(concentration in M).

Here is how some compounds turned out for pIC50.
# Mol Smiles, pIC50
records = [
    ("CC[C@H](C)[C@H](NC(=O)[C@@H](C[C@H](O)[C@H](CC1CCCCC1)NC(=O)OC(C)(C)C)C(C)C)C(=O)NCCc1ccccc1", 8.35),
    ("CC[C@H](C)[C@H](NC(=O)[C@@H](C[C@H](O)[C@H](CC1CCCCC1)NC(=O)CC(C)(C)C)C(C)C)C(=O)NCCc1ccccc1", 8.11),
    ("CC[C@H](C)[C@H](NC(=O)[C@@H](C[C@H](O)[C@H](CC1CCCCC1)NC(=O)OC(C)(C)C)C(C)C)C(=O)NCCN1CCOCC1", 8.40),
]

// moving on: another record for pIC50
Q. Please look up its pIC50: CC[C@H](C)[C@H](NC(=O)[C@@H](C[C@H](O)[C@H](Cc1ccccc1)NC(=O)OC(C)(C)C)C(C)C)C(=O)NCCc1ccccc1
A. 8.39

====

# maps each entry to its pIC50
system: HTLV-III (strain RF); assay: In vitro antiviral activity: HTLV-III (strain RF) in C8166 cells, p24 antigen capture assay; type: cell-based; details: Human immunodeficiency virus 1; concentration that produces 50% protection; C8166 cells infected with ten times the TCD₅₀, 72 hours at 37°C, viral protein 24 antigen capture; read-out: IC₅₀ Activity against HIV
A value of pIC50 is the negative decimal logarithm of a concentration given in moles per litre.

Q. Item under review: CC[C@H](C)[C@H](NC(=O)[C@@H](C[C@H](O)[C@H](CC1CCCCC1)NC(=O)[C@H](CC(N)=O)NC(=O)OCc1ccccc1)C(C)C)C(=O)NCCc1ccccc1 . Reported pIC50?
A. 8.05

Q. I would be grateful if you could share the reported pIC50 for CC[C@H](C)[C@H](NC(=O)[C@@H](C[C@H](O)[C@H](CC1CCCCC1)NC(=O)OC(C)(C)C)C(C)C)C(=O)NCCc1ccccc1 .
A. 7.00

Q. Please give the measured pIC50 for this molecule: CC[C@H](C)[C@H](NC(=O)[C@@H](C[C@H](O)[C@H](CC1CCCCC1)NC(=O)OC(C)(C)C)C(C)C)C(=O)NCCN1CCOCC1
A. 7.00

Q. May I ask what pIC50 has been recorded for CC[C@H](C)[C@H](NC(=O)[C@@H](C[C@H](O)[C@H](CC1CCCCC1)NC(=O)OC(C)(C)C)C(C)C)C(=O)NCc1ccccc1 ?
A. 8.15

Q. Value lookup for pIC50; key = CC[C@H](C)[C@H](NC(=O)[C@@H](C[C@H](O)[C@H](CC1CCCCC1)NC(=O)OC(C)(C)C)C(C)C)C(=O)NCCc1ccc(O)cc1
A. 8.00

Q. Please report the recorded pIC50 for CC[C@H](C)[C@H](NC(=O)[C@@H](C[C@H](O)[C@H](Cc1ccccc1)NC(=O)OC(C)(C)C)C(C)C)C(=O)NCCc1ccccc1 .
A. 7.00

Q. pIC50 lookup needed for CC[C@H](C)[C@H](NC(=O)[C@@H](C[C@H](O)[C@H](CC1CCCCC1)NC(=O)OCc1ccccc1)C(C)C)C(=O)NCCc1ccccc1 , thanks.
A. 7.22

The origin of these recorded values is patent EP0386611A2.
